# Lookup of reported Phage binding ELISA CD28 scFv signal keyed by entry
molecular target: T1, Anti-CD28 scFv (VH-linker 1-VL) (biotinylated (site not stated)); assay: phage ELISA, captured biotinylated scFv; background signal 0.078
T1 construct: biotinylated and captured on neutravidin coated plates in the phage ELISA
T1 sequence (scFv, as listed by the source): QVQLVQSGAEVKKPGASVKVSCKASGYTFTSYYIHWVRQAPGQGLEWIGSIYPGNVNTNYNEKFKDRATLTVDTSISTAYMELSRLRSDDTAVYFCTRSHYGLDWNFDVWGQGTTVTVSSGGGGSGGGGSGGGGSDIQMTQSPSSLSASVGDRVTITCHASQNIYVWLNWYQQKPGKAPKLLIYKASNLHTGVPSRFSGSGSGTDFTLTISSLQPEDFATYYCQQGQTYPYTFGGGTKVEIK
PARAMETER: Phage binding ELISA CD28 scFv signal

[[record]]
binder = "MDWCPIHLWHYCFN [Phage-88]"
measured_value = 2.6

[[record]]
binder = "MDWCPRPLWHECFS [Phage-45]"
measured_value = 2.35

[[record]]
binder = "MDWCPKDLWDYCFA [Phage-97]"
measured_value = 2.57

[[record]]
binder = "MDWCPRDLWDLCFA [Phage-25]"
measured_value = 2.7

